Here, each record is paired with measured pIC50 data.
- Study target: Protein farnesyltransferase (Rattus norvegicus, UniProt Q02293+Q04631)
- Method: In vitro ability to displace radiolabeled FTI from farnesyltransferase in cultured Ha-ras transformed RAT1 cells
pIC50: −log10 of the molar value.

Item smiles | pIC50
C[C@H]1NCc2cncn2Cc2ccc(C#N)c(c2)Oc2ccc3cccc(c3c2)N(C)C1=O | 7.77
CN1C(=O)CNCc2cncn2Cc2ccc(C#N)c(c2)Oc2ccc3cccc1c3c2 | 7.26
C[C@H]1NCc2cncn2Cc2ccc(C#N)c(c2)Oc2ccc3cccc(c3c2)NC1=O | 7.64
C[C@H]1NC(=O)Cc2cncn2Cc2ccc(C#N)c(c2)Oc2ccc3cccc(c3c2)NC1=O | 6.59
N#Cc1ccc2cc1Oc1ccc3cccc(c3c1)NC(=O)CN(Cc1ccccc1)Cc1cncn1C2 | 7.53
N#Cc1ccc2cc1Oc1ccc3cccc(c3c1)C(=O)NCCNC(=O)Cc1cncn1C2 | 6.39
C[C@@H]1C(=O)N(C)c2cccc3ccc(cc23)Oc2cc(ccc2C#N)Cn2cncc2CN1C | 7.82
CN1CC(=O)N(C)c2cccc3ccc(cc23)Oc2cc(ccc2C#N)Cn2cncc2C1 | 7.89
N#Cc1ccc2cc1Oc1ccc3cccc(c3c1)C(=O)NCCCNCc1cncn1C2 | 7.00
